# Species on record: Canis lupus familiaris
# Assay: Percentage inhibition of free fatty acid liberation at 100 uM determined in canine myocardial lipase assay
# Format: functional
Value Type: inhibition (%)
Quick note: give the figure in %, leave out the unit.

// known answers, use as guide
{"Molecule Smiles": "COc1ccc(CCNC(=O)Oc2ccc3cccnc3c2)cc1", "Value Type": "inhibition", "Uom": "%", "Result": 97}
{"Molecule Smiles": "O=C(Nc1ccc(Cl)cc1)Oc1cccc2cccnc12", "Value Type": "inhibition", "Uom": "%", "Result": 58}
{"Molecule Smiles": "O=C(Nc1ccccc1)Oc1ccc(Cl)c2cccnc12", "Value Type": "inhibition", "Uom": "%", "Result": 69}
{"Molecule Smiles": "COc1ccc(NC(=O)Oc2cccc3cccnc23)c(OC)c1", "Value Type": "inhibition", "Uom": "%", "Result": 65}
{"Molecule Smiles": "O=C(Nc1ccccc1C(F)(F)F)Oc1ccc2cccnc2c1", "Value Type": "inhibition", "Uom": "%", "Result": 12}

// moving on: another record for inhibition
Please fill in: inhibition reported for "COc1ccc(CC(=O)Oc2cccc3cccnc23)cc1" = 0

###

# Assay: Concentration required for inhibition of free fatty acid liberation in Canine myocardial lipase assay
# Type: functional, tissue-based, Canis lupus familiaris, Myocardium
# pIC50 per entry
Here pIC50 is given on a logarithmic scale as minus log10 of the concentration in mol/L.

// known answers, use as guide
{"Molecule Smiles": "COc1ccc(NC(=O)Oc2cccc3cccnc23)cc1", "pIC50": 4.77}
{"Molecule Smiles": "COc1ccc(NC(=O)Oc2cccc3ocnc23)cc1", "pIC50": 5.15}
{"Molecule Smiles": "COc1cccc(NC(=O)Oc2cccc3cccnc23)c1", "pIC50": 4.74}
{"Molecule Smiles": "Cc1cnc(C(=O)O)c[n+]1[O-]", "pIC50": 4.41}

Please fill in: pIC50 reported for "O=C(Nc1ccccc1)Oc1c(Cl)cc(Cl)c2cccnc12" = 4.25

Please fill in: pIC50 reported for "O=C(NCCCCCCNC(=O)ON=C1CCCCC1)ON=C1CCCCC1" = 5.40

Please fill in: pIC50 reported for "O=C(Nc1ccc(Br)cc1)Oc1cccc2cccnc12" = 4.10

Please fill in: pIC50 reported for "COc1ccc(OC)c(NC(=O)Oc2cccc3cccnc23)c1" = 4.32

Please fill in: pIC50 reported for "COc1ccccc1NC(=O)Oc1cccc2ncccc12" = 4.32
